Values were extracted from patent US12441768B2.

Molecular target: UniProt P35222
Sequence (P35222 whole entry): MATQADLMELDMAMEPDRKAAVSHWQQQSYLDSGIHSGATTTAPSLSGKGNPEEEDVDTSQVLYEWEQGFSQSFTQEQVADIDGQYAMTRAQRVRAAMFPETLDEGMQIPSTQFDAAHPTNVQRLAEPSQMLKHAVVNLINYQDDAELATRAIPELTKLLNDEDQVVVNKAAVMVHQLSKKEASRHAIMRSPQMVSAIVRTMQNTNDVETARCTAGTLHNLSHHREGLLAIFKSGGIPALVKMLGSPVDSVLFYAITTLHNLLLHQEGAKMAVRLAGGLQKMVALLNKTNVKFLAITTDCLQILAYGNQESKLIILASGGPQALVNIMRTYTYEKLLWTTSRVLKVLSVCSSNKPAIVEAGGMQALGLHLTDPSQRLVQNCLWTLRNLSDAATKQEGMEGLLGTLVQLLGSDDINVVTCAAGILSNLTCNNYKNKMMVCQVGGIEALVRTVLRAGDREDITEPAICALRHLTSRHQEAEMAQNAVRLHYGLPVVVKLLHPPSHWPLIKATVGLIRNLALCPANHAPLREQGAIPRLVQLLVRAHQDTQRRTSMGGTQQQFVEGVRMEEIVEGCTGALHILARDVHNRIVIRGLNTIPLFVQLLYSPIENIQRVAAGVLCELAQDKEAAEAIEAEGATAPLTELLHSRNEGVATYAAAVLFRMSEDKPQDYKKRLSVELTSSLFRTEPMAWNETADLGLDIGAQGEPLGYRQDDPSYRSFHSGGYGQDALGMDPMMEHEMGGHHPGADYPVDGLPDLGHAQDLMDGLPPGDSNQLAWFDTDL
Experiment: KD50 measurement using competitive fluorescence polarization (FP) with labelled TCF4
Type: binding
Settings: fluorescence polarization, β-catenin; read-out: β-Cat FP KD
Where a SMILES comes first, the peptide text is derived from it.
PROPERTY MEASURED: Kd

CC[C@H](C)[C@H](NC(=O)[C@H](CC(C)C)NC(=O)[C@@H](NC(=O)[C@H](Cc1c[nH]c2ccccc12)NC(=O)[C@H](CCSC)NC(=O)[C@@H](N)Cc1c[nH]cn1)[C@@H](C)CC)C(=O)N[C@@H](CO)C(=O)N[C@@H](Cc1ccccc1)C(=O)N[C@@H](Cc1c[nH]c2ccccc12)C(=O)NCC(=O)O [compound 123] (H-HMWILISFWG-OH): < 400 nM
CC[C@@H]1NC(=O)[C@H]([C@@H](C)CC)NC(=O)[C@H](CC(C)C)NC(=O)[C@H](CC2CCCCC2)NC(=O)[C@H](Cc2c[nH]c3ccccc23)NC(=O)[C@@H](NC(C)=O)CCCCNC(=O)C[C@@H](C(=O)O)NC(=O)[C@H](Cc2c[nH]c3ccccc23)NC(=O)[C@H](C)NC1=O [compound 261] (HELM PEPTIDE1{[ac].K.W.[Cha].L.I.[Abu].A.W.D}$PEPTIDE1,PEPTIDE1,2:R3-10:R3$$$V2.0): 400 to 1000 nM

Lab note: next compound to report on.
Param item = CSCC[C@H](NC(=O)[C@H](CCCNC(=N)N)NC(=O)[C@H](CO)NC(=O)[C@@H](N)CCSC)C(=O)N[C@@H](Cc1c[nH]c2ccccc12)C(=O)N[C@@H](Cc1ccccc1)C(=O)N[C@@H](CC(C)C)C(=O)N[C@@H](CC(N)=O)C(=O)N[C@@H](CO)C(=O)N[C@@H](Cc1ccccc1)C(=O)N[C@@H](Cc1c[nH]c2ccccc12)C(=O)NCC(=O)O [compound 70] (H-MSRMWFLNSFWG-OH) ; retrieve measured Kd.
> 30000 nM

---

Each item that follows carries a reported Kd.
Target: UniProt:P35222
Assay: KD50 measurement using competitive fluorescence polarization (FP) with labelled TCF4
Format: binding
Details: fluorescence polarization, β-catenin; read-out: β-Cat FP KD
Where a SMILES comes first, the peptide text is derived from it.

CC[C@H](C)[C@@H]1NC(=O)[C@H](CC(C)C)NC(=O)[C@H](Cc2ccccc2)NC(=O)[C@H](Cc2c[nH]c3ccccc23)NC(=O)[C@@H](N)CCCCNC(=O)CNC(=O)C[C@@H](C(=O)O)NC(=O)[C@H](Cc2c[nH]c3ccccc23)NC(=O)[C@H](C)NC(=O)[C@H](CS)NC1=O [compound 207] (HELM PEPTIDE1{K.W.F.L.I.C.A.W.[O=C(O)[C@H](CC(=O)[*:2])N[*:1]].G}$PEPTIDE1,PEPTIDE1,1:R3-10:R2$$$V2.0): 400 to 1000 nM

Lab note: next molecule to report on.
Param item = CC[C@H](C)[C@H](NC(=O)[C@H](CC(C)C)NC(=O)[C@H](Cc1ccccc1)NC(=O)[C@H](Cc1c[nH]c2ccccc12)NC(=O)[C@H](Cc1c[nH]cn1)NC(=O)[C@H](CCCNC(=N)N)NC(=O)[C@H](CO)NC(=O)[C@@H](N)CCCCN)C(=O)N[C@@H](CO)C(=O)N[C@@H](Cc1ccccc1)C(=O)N[C@@H](Cc1c[nH]c2ccccc12)C(N)=O [compound 94] (H-KSRHWFLISFW-NH2) ; retrieve measured Kd.
> 30000 nM

---

Target: Wnt-responsive promoter (TCF/LEF)
Assay: Wnt-dependent luciferase reporter assay
pEC50: −log10 of the molar value. Where a SMILES comes first, the peptide text is derived from it. The star is where a group is joined. Bn = c1ccc(C*)cc1
PROPERTY MEASURED: pEC50

// fetch Wnt-responsive promoter (TCF/LEF) pEC50 for CC[C@H](C)[C@H](NC(=O)[C@H](CC(C)C)NC(=O)[C@H](Cc1ccccc1)NC(=O)[C@H](Cc1c[nH]c2ccccc12)NC(=O)[C@H](CCSC)NC(=O)[C@H](CCCNC(=N)N)NC(=O)[C@H](CO)NC(=O)[C@@H](N)CCSC)C(=O)N[C@@H](CO)C(=O)N[C@@H](Cc1ccccc1)C(=O)N[C@@H](Cc1c[nH]c2ccccc12)C(=O)N(C)[C@@H](C)C(=O)NCC(=O)O [compound 16] (HELM PEPTIDE1{M.S.R.M.W.F.L.I.S.F.W.[meA].G}$$$$V2.0)
4.65 to 4.82

// fetch Wnt-responsive promoter (TCF/LEF) pEC50 for CC[C@H](C)[C@H](NC(=O)[C@H](CC(C)C)NC(=O)[C@@H](NC(=O)[C@H](Cc1c[nH]c2ccccc12)NC(=O)[C@@H](N)CCSC)[C@@H](C)CC)C(=O)N[C@@H](COCc1ccccc1)C(=O)N[C@@H](Cc1ccccc1)C(=O)N[C@@H](Cc1c[nH]c2ccccc12)C(=O)NCC(=O)O [compound 146] (H-MWILIS(Bn)FWG-OH)
< 4.52

// fetch Wnt-responsive promoter (TCF/LEF) pEC50 for CC[C@H](C)[C@H](NC(=O)[C@H](CC(C)C)NC(=O)[C@H](Cc1ccccc1)NC(=O)[C@H](Cc1c[nH]c2ccccc12)NC(=O)[C@@H](N)CCSC)C(=O)N[C@@H](CS)C(=O)N[C@@H](Cc1c[nH]cn1)C(=O)N[C@@H](Cc1c[nH]c2ccccc12)C(=O)NCC(=O)O [compound 145] (H-MWFLICHWG-OH)
4.82 to 5.12

// fetch Wnt-responsive promoter (TCF/LEF) pEC50 for CC[C@H](C)[C@H](NC(=O)[C@H](CC(C)C)NC(=O)[C@H](Cc1ccccc1)NC(=O)[C@H](Cc1c[nH]c2ccccc12)N(C)C(=O)[C@H](CCSC)NC(=O)[C@H](CCCNC(=N)N)NC(=O)[C@@H](NC(=O)[C@@H](N)CCSC)[C@@H](C)CC)C(=O)N[C@@H](CO)C(=O)N[C@@H](Cc1ccccc1)C(=O)N[C@@H](Cc1c[nH]c2ccccc12)C(=O)NCC(=O)O [compound 53] (HELM PEPTIDE1{M.I.R.M.[meW].F.L.I.S.F.W.G}$$$$V2.0)
< 4.52

// fetch Wnt-responsive promoter (TCF/LEF) pEC50 for CC[C@H](C)[C@H](NC(=O)[C@H](CC(C)C)NC(=O)[C@H](Cc1ccccc1)NC(=O)[C@H](Cc1c[nH]c2ccccc12)NC(=O)[C@H](Cc1c[nH]cn1)NC(=O)[C@H](CCCNC(=N)N)NC(=O)[C@H](CO)NC(=O)[C@@H](N)CCSC)C(=O)N[C@@H](CO)C(=O)N[C@@H](Cc1ccccc1)C(=O)N[C@@H](Cc1c[nH]c2ccccc12)C(N)=O [compound 88] (H-MSRHWFLISFW-NH2)
< 4.52

// fetch Wnt-responsive promoter (TCF/LEF) pEC50 for CC[C@H](C)[C@@H]1NC(=O)[C@H](CC(C)C)NC(=O)[C@H](Cc2ccccc2)NC(=O)[C@H](Cc2c[nH]c3ccccc23)NC(=O)[C@@H](N)CCCCNC(=O)CC[C@@H](C(=O)N[C@@H](Cc2c[nH]c3ccccc23)C(=O)NCC(=O)O)NC(=O)[C@H](CS)NC1=O [compound 181] (HELM PEPTIDE1{K.W.F.L.I.C.E.W.G}$PEPTIDE1,PEPTIDE1,1:R3-7:R3$$$V2.0)
< 4.52

// fetch Wnt-responsive promoter (TCF/LEF) pEC50 for CC[C@H](C)[C@H](NC(=O)[C@H](CC(C)C)NC(=O)[C@H](Cc1ccccc1)NC(=O)[C@H](Cc1c[nH]c2ccccc12)NC)C(=O)N[C@@H](CO)C(=O)N[C@@H](Cc1ccccc1)C(=O)N[C@@H](Cc1c[nH]c2ccccc12)C(=O)O [compound 111] (HELM PEPTIDE1{[meW].F.L.I.S.F.W}$$$$V2.0)
4.82 to 5.12

// fetch Wnt-responsive promoter (TCF/LEF) pEC50 for CC[C@H](C)[C@H](NC(=O)[C@H](CC(C)C)NC(=O)[C@H](Cc1ccccc1)NC(=O)[C@H](Cc1c[nH]c2ccccc12)NC(=O)[C@@H](N)CCSC)C(=O)N[C@@H](C)C(=O)N[C@@H](C)C(=O)N[C@@H](Cc1c[nH]c2ccccc12)C(=O)NCC(=O)O [compound 212] (H-MWFLIAAWG-OH)
> 5.12

// fetch Wnt-responsive promoter (TCF/LEF) pEC50 for CC[C@H](C)[C@@H]1NC(=O)[C@H](CC(C)C)NC(=O)[C@H](Cc2ccccc2)NC(=O)[C@H](Cc2c[nH]c3ccccc23)NC(=O)[C@H](CCSC)NC(=O)[C@H](CCCNC(=N)N)NC(=O)[C@H](CO)NC(=O)[C@H](CCSC)NC(=O)[C@@H](N)CCCCNC(=O)CNC(=O)[C@H](Cc2c[nH]c3ccccc23)NC(=O)[C@H](CC(C)C)NC(=O)[C@H](CO)NC1=O [compound 28] (HELM PEPTIDE1{K.M.S.R.M.W.F.L.I.S.L.W.G}$PEPTIDE1,PEPTIDE1,1:R3-13:R2$$$V2.0; bridges inferred)
4.52 to 4.65

// fetch Wnt-responsive promoter (TCF/LEF) pEC50 for CC[C@H](C)[C@@H]1NC(=O)[C@H](CC(C)C)NC(=O)[C@H](C(C)(C)C)NC(=O)[C@H](Cc2c[nH]c3ccccc23)NC(=O)[C@@H](N)CCCCNC(=O)C[C@@H](C(=O)O)NC(=O)[C@H](Cc2c[nH]c3ccccc23)NC(=O)[C@H](C)NC(=O)[C@H](CO)NC1=O [compound 205] (HELM PEPTIDE1{K.W.[CC(C)(C)[C@H](N[*:1])C(=O)[*:2]].L.I.S.A.W.D}$PEPTIDE1,PEPTIDE1,1:R3-9:R3$$$V2.0)
< 4.52
